Test system: 786-0 renal
Test: NCI tumour cell line growth inhibition, 48 h
Listed next: entries and their corresponding TGI.

Compound	Readout Kind	Result
CCN(C(=O)N[C@@H](CC(C)C)C(=O)NCC(=O)OC)c1ccccc1	TGI	> 100 µM
N/C(CCSCCSCC/C(N)=N\O)=N\O	TGI	> 100 µM
Cc1ccc2c(c1C)CC1(Cc3ccc(C)c(C)c3C1=O)C2=O (stereo not drawn)	TGI	> 100 µM

[in] Tell me reported TGI for `COc1cc2c(Oc3ccc(-c4cnc(Nc5ccc(F)cc5)n(C)c4=O)cc3F)ccnc2cc1OCCCN1CCOCC1` , tested with 786-0 renal.
[out] 3.1 µM
